# method.description: Half life in human OVCAR-3 cells xenografted in female Balb/c nude mouse plasma at 2 mg/kg, po administered once daily
# Format: ADME, organism-based
outcome.measure: half-life (h)
Give bare numbers, in h.

Problem: Entry under review: "CN1CC(F)(F)CCN(C)[C@H]2CC[C@@H](C2)Nc2ncc(C(F)(F)F)c(n2)-c2c[nH]c3c(P(C)(C)=O)c(ccc23)C1=O" . Reported half-life?
Result: 1.7

###

# method.description: AUC(0 to t) in rat at 5 mg/kg, po
# Type: ADME, organism-based
# study.conditions: in vivo
outcome.measure: AUC(0-t) (ng·h/mL)
One number for each entry, in ng·h/mL.

CN1CC(F)(F)CCN(C)[C@H]2CC[C@@H](C2)Nc2ncc(C(F)(F)F)c(n2)-c2c[nH]c3c(P(C)(C)=O)c(ccc23)C1=O
554

Here is the next item to consider.
Problem: Entry under review: "CC1(C)CC[C@H](Nc2ncc(C(F)(F)F)c(-c3c[nH]c4c(P(C)(C)=O)c(C#N)ccc34)n2)CN1" . Reported AUC(0-t)?
Result: 920
